assay: antimalarial activity against Dd2 strain (AID 2302);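 further: 0% = DMSO untreated growth and 100% = chloroquine plus artemisinin killed control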; settings: P. falciparum Dd2 in RBCs, LDH growth readout, 72 h; at 2 µM
Active and inactive are the calls of the source.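 How the source made its calls: active means growth inhibition above 50% at the single 2 µM test dose, taken to imply half-maximal potency below 2 µM; inactive means the rest.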
Pick one and only one: class 1 for active, class 0 for inactive

Example cases with answers are listed next.
| compound | label |
| --- | --- |
| COc1cccc(-c2ccc(C(=O)NC3CCN(Cc4ccc(C(C)(C)C)cc4)CC3)s2)c1 | class 0 |
| COc1ccc(-c2csc(N(CCCN(C)C)C(=O)c3cc4c(C)nn(-c5ccccc5)c4s3)n2)cc1 | class 0 |

Please state the recorded outcome for this compound: CN1CCC(N(Cc2ccc(-c3ccc(Cl)cc3)cc2)C(=O)Cn2c(CCc3cccc(F)c3F)cc(=O)c3ccccc32)CC1
class 1

Next: O=C(NCc1ccco1)c1ccc(S(=O)(=O)c2ccc(Cl)cc2)cc1
class 1

Request: CCN(CC)CCCCCNc1c2ccc(Cl)cc2nc2ccc(OC)cc12
class 1

And NC(=O)c1ccc(-n2cnc3cc(F)ccc32)cc1OCc1ccccc1C(F)(F)F (tested in a mixture with another compound) ?
class 1

Then what about the compound Cc1noc(C)c1-c1cccc(CNCc2ccc(-c3cccc(-c4nc5ccccc5[nH]4)c3)cc2)c1 ?
class 1

Please answer likewise for COC(=O)C(=C(C)C)N1C(=O)[C@@H](NC(=O)OCc2ccccc2)[C@H]1SS[C@@H]1[C@H](NC(=O)OCc2ccccc2)C(=O)N1C(C(=O)OC)=C(C)C
class 1
